PROTOCOL_DESCRIPTION: Free fraction of drug in human plasma, rapid equilibrium dialysis
Assay type: in vitro ADME

MOLECULE	fraction unbound
CCCN1CC(Oc2cc(F)c([C@@H]3c4[nH]c5ccccc5c4C[C@@H](C)N3CC(C)(C)F)c(F)c2)C1 [Goodacre Compound 107, reference compound]	0.00013
C[C@@H]1Cc2c([nH]c3ccccc23)[C@@H](c2c(F)cc(OCCN3CC(CF)C3)cc2F)N1CC(C)(C)F [Compound D]	0.00044
CCCN1CC(Oc2ccc([C@@H]3c4[nH]c5ccccc5c4C[C@@H](C)N3CC(C)(C)F)cc2)C1 [Compound B]	0.00036
C[C@]12CC[C@@H]3c4ccc(O)cc4C[C@@H](CCCCCCCCC[S+]([O-])CCCC(F)(F)C(F)(F)F)[C@H]3[C@@H]1CC[C@@H]2O (stereo partly drawn) [Fulvestrant, reference compound]	1e-05
C[C@@H]1Cc2c([nH]c3ccccc23)[C@@H](c2c(F)cc(/C=C/C(=O)O)cc2F)N1CC(C)(C)F [AZD9496, reference compound]	0.00308
C[C@@H]1Cc2c([nH]c3ccccc23)[C@@H](c2ccc(OCCN3CC(CF)C3)cc2)N1CC(C)(C)F [Compound C]	0.00151
